Measured self-cleavage of individual entries
B1: OR4K15 (parent)
chain: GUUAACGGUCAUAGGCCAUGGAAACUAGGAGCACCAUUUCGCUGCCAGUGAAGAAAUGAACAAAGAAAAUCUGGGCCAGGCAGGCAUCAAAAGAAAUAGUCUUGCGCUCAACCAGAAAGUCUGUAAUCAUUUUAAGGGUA

Variants of: B1
assay_summary: self-cleavage, relative activity (ratio to wild type); higher = more cleavage; in vitro, sequencing; the parent is a self-cleaving ribozyme
Simply state the number, no unit and no words.

See these solved cases before continuing.
>  <mutation_key>
A36U A126U

>  <self-cleavage>
1.63

$$$$
>  <mutation_key>
U38C G137A

>  <self-cleavage>
0.9

$$$$
>  <mutation_key>
A11G A92C

>  <self-cleavage>
0.7

$$$$
>  <mutation_key>
A5U A30U

>  <self-cleavage>
1.11

$$$$
>  <mutation_key>
A36U U87C

>  <self-cleavage>
1.76

$$$$
>  <mutation_key>
U103C G136U

>  <self-cleavage>
1.12

$$$$
>  <mutation_key>
A64C U131C

>  <self-cleavage>
1.9

$$$$
>  <mutation_key>
U19A A98G

>  <self-cleavage>
0.5

$$$$

Record summary for C34U A64G : reported self-cleavage = 0.98

Record summary for U19A A111U : reported self-cleavage = 0.09
